The reported measurements were obtained from ChEMBL document CHEMBL1275417.

# study target: DNA gyrase (Escherichia coli)
# assay remarks: Inhibition of Escherichia coli JM109 DNA gyrase assessed as DNA triple helix formation by supercoiling assay
pIC50: −log10 of the molar value.
measured attribute: pIC50

Example compounds with recorded pIC50:
COc1cc(C(=O)Nc2c(O)c3ccc(O[C@@H]4OC(C)(C)[C@H](OC)[C@@H](OC(=O)c5ccc(C)[nH]5)[C@H]4O)cc3oc2=O)ccc1O ... 7.12
CO[C@@H]1[C@@H](O)[C@@H](OC(=O)c2ccc(C)[nH]2)[C@H](Oc2ccc3c(O)c(NC(=O)c4cc(C)c(O)c(C)c4)c(=O)oc3c2Cl)OC1(C)C ... 6.49
CCCc1cc(C(=O)Nc2c(O)c3ccc(O[C@@H]4OC(C)(C)[C@H](OC)[C@@H](OC(=O)c5ccc(C)[nH]5)[C@H]4O)c(C)c3oc2=O)ccc1O ... 7.72

(P) CO[C@@H]1[C@@H](O)[C@@H](OC(=O)c2ccc(C)[nH]2)[C@H](Oc2ccc3c(O)c(NC(=O)/C=C/c4ccccc4)c(=O)oc3c2Cl)OC1(C)C
(Q) COc1cc(C(=O)Nc2c(O)c3ccc(O[C@@H]4OC(C)(C)[C@H](OC)[C@@H](OC(=O)c5ccc(C)[nH]5)[C@H]4O)c(Cl)c3oc2=O)ccc1O
Sorting ascending by pIC50, which comes first: P or Q ? Returns: label corresponding to the selected item.
P
(P: 5.92, Q: 7.66)
